target: CitERF71 (Citrus sinensis Osbeck (Newhall sweet …, UniProt A0A067HCL9 1-233)); test: EMSA; LightShift Chemiluminescent EMSA kit per manufacturer and Nieuwenhuizen et al. 2015; buffer, salt, pH and temperature not stated; conditions: protein: recombinant; tags: N-terminal 6xHN (His) tag; label: 3' biotin; blunt
Sequence (A0A067HCL9 entry or part of it): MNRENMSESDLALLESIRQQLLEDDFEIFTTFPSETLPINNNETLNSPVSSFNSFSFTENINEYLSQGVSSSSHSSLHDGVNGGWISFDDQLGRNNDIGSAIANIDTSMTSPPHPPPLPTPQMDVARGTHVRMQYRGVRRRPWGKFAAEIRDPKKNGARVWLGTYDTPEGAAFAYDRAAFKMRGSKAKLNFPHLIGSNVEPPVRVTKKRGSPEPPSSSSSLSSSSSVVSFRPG

BINDER: GCC-box-like sequence 1 (dsDNA) DNA 1: GAATGGGCGATAGAGCTCATACTTACCCGCCTCTCTTCACATTCAAACTTCTAATATTA DNA 2: TAATATTAGAAGTTTGAATGTGAAGAGAGGCGGGTAAGTATGAGCTCTATCGCCCATTC
binding result: binds

BINDER: mGCC-box-like sequence 2 (dsDNA) DNA 1: AATTTACAAAATTATAGAAGTCAAATTACGACGTCGTAAATCTGGCAAAACTTTAATGG DNA 2: CCATTAAAGTTTTGCCAGATTTACGACGTCGTAATTTGACTTCTATAATTTTGTAAATT
binding result: no binding

BINDER: GCC-box-like sequence 2 (dsDNA) DNA 1: AATTTACAAAATTATAGAAGTCAAATTACGACGTCGTAAATCTGGCGGGACTTTAATGG DNA 2: CCATTAAAGTCCCGCCAGATTTACGACGTCGTAATTTGACTTCTATAATTTTGTAAATT
binding result: binds

BINDER: mGCC-box-like sequence 1 (dsDNA) DNA 1: GAATGGGCGATAGAGCTCATACTTAAAAGCCTCTCTTCACATTCAAACTTCTAATATTA DNA 2: TAATATTAGAAGTTTGAATGTGAAGAGAGGCTTTTAAGTATGAGCTCTATCGCCCATTC
binding result: no binding
